Origin of the recorded values: ChEMBL document CHEMBL5236650

# experimentSummary: Stability in mouse plasma assessed as half life
# Format: ADME, cell-free
Can you tell me half-life for the items I'm about to list?

stdin: Looking for the measured half-life of "COc1ccc(-c2nc3cc(NC(=O)[C@H](N)Cc4ccccc4)ccc3o2)cc1" , can you help?
stdout: 0.417 h

stdin: // returns reported half-life for input "COc1ccc(-c2nc3cc(C(=O)NC[C@H](N)Cc4ccccc4)ccc3o2)cc1"
stdout: > 4 h

stdin: Request the reported half-life associated with "C#CCOc1ccc(-c2nc3cc(NC(=O)[C@H](N)Cc4ccccc4)ccc3o2)cc1"
stdout: 5 h

stdin: Can you share its half-life? I mean this molecule: "COc1ccc(-c2nc3cc(NC[C@H](N)Cc4ccccc4)ccc3o2)cc1"
stdout: > 4 h

stdin: # get_value(readout='half-life', item= "COc1ccc(-c2nc3cc(-n4cc([C@H](N)Cc5ccccc5)nn4)ccc3o2)cc1" )
stdout: > 4 h
